# Test system: HIV integrase (Human immunodeficiency virus type 1 group M subtype B, UniProt P12497, F1332H)
# Construct: HIV integrase full length gene
# Assay procedure: Determination of enzyme (HIV integrase) inhibitory activity (strand transfer, microtiter plate, absorbance at 450 nm)
# Conditions: recombinant HIV integrase (F185H) expressed in E. coli; donor DNA on streptavidin plate, digoxigenin target DNA; 37° C.
Form field: IC50 (one value per entry).
Return type: number; implicit unit nM.

// worked examples, IC50 included
O=C(O)c1cn(CCO)c2ccc(Cc3cc(O)ccc3Cl)cc2c1=O ... 220
CC(C)Oc1cc(Cc2cccc(Cl)c2F)cc2c(=O)c(C(=O)O)cn([C@H](CO)C(C)C)c12 ... 2.5
CNC(=O)Cn1cc(C(=O)O)c(=O)c2cc(Cc3cccc(Cl)c3Cl)ccc21 ... 140
CCOc1cc(Cc2cccc(Cl)c2F)cc2c(=O)c(C(=O)O)cn([C@H](CO)C(C)C)c12 ... 3.4
CC(C)Oc1cc(Cc2cccc(Cl)c2F)cc2c(=O)c(C(=O)O)cn([C@H](CO)C3CCCCC3)c12 ... 3.1

Tell me IC50 reported for "COc1cc2c(cc1Cc1cccc(Cl)c1F)c(=O)c(C(=O)O)cn2[C@H](CO)C1CCCCC1"
2.3

Supply IC50 value. Item: "O=C(O)c1cn(CCCO)c2ccc(Cc3cccc(Cl)c3Cl)cc2c1=O"
160

Give IC50 for "CC(C)C[C@@H](CO)n1cc(C(=O)O)c(=O)c2cc(Cc3cccc(Cl)c3F)cc(OC(C)C)c21"
1.9
